Target: T1, soluble mouse GPNMB-Fc polypeptide (mouse IgG2A Fc) (mouse, UniProt Q99P91 23-502)
T1 construct: extracellular domain; bought (R&D System); also called moGPNMB-Fc; mGPNMB-Fc; not shown: Fc region of mouse IgG2A
T1 sequence (looked up): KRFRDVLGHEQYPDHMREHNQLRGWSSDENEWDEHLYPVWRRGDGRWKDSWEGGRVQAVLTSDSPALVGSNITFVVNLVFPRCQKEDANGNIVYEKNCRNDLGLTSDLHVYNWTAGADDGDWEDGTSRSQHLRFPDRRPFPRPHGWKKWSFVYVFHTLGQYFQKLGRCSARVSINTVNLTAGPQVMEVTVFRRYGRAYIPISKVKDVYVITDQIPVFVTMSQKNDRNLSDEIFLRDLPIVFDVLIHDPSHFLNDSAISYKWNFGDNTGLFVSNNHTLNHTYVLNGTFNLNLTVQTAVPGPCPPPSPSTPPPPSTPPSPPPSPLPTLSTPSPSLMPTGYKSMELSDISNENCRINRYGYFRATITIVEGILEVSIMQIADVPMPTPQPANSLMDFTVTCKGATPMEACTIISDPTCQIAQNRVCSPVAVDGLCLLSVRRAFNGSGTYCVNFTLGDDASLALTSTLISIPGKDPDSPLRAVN
Experiment: FACS, blocking of mGPNMB-Fc binding to SVEC cells
Would you mind telling me the reported IC50 of each entry?
Answer with a number only, understood to be in nM.

Entry under review: anti-GPNMB antibody GPN-90 (antibody, V domains shown) VH: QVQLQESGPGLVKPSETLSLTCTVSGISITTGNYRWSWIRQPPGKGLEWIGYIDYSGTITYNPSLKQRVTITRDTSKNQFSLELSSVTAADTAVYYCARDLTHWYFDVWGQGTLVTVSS VL: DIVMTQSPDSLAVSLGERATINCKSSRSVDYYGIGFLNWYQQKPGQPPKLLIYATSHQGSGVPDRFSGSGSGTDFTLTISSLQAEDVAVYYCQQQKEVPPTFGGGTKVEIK . Reported IC50? 1.43

Next binder up: anti-GPNMB antibody GPN-87 (antibody, V domains shown) VH: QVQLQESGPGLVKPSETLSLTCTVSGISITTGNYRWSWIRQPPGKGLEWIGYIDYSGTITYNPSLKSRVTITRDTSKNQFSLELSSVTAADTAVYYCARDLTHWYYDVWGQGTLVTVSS VL: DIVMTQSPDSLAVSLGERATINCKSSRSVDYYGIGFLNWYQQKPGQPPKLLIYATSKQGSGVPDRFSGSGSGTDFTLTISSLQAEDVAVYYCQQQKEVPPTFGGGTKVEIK 0.98

Next binder up: anti-GPNMB antibody GPN-88 (antibody, V domains shown) VH: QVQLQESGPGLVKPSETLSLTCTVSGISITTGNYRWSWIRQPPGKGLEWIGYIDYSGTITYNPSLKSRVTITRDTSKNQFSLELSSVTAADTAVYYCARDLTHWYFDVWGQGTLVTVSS VL: DIVMTQSPDSLAVSLGERATINCKSSRSVDYYGIGFLNWYQQKPGQPPKLLIYATSHQGSGVPDRFSGSGSGTDFTLTISSLQAEDVAVYYCQQQKHVPPTFGGGTKVEIK 0.625
